# Tested on: HCV 1b_Huh-Luc/Neo-ET cell line persistently expressing a bicistronic genotype 1b replicon in Huh 7 cells
# measurement-protocol: HCV replicon assay (luciferase readout, 72 h)
# Type: cell-based, HCV genotype 1b
# condition-label: Hepatitis C virus, Huh-7, 72 h, read-out: Inhibition of HCV genotype 1b
measure-name: EC50

O=C(N[C@@H](C(=O)N1CCC[C@H]1c1ncc(C#Cc2ccc(-c3cnc([C@@H]4CCCN4C(=O)[C@H](NC(=O)N4CCOCC4)c4ccccc4)[nH]3)cc2)[nH]1)c1ccccc1)N1CCOCC1
1 to 9.9 nM
COC(=O)N[C@H](C(=O)N1CCC[C@H]1c1ncc(-c2ccc(C#Cc3ccc(-c4cnc([C@@H]5CCCN5C(=O)[C@@H](c5ccccc5)N5CCN(C)CC5)[nH]4)cc3)cc2)[nH]1)C(C)C
< 1 nM
CC(C)(C)OC(=O)N[C@@H](C(=O)N1CCC[C@H]1c1ncc(C#Cc2ccc(-c3cnc([C@@H]4CCCN4C(=O)[C@H](NC(=O)OC(C)(C)C)c4ccccc4)[nH]3)cc2)[nH]1)c1ccccc1
< 1 nM
COC(=O)N[C@H](C(=O)N1CCC[C@H]1c1ncc(-c2ccc(C#Cc3ccc(-c4cnc([C@@H]5CCCN5C(=O)[C@@H](Nc5cccnc5)C(C)C)[nH]4)cc3)cc2)[nH]1)C(C)C
< 1 nM

Then there is this compound:
Exam item: Which EC50 is reported for this compound? CNC(=O)N[C@@H](C(=O)N1CCC[C@H]1c1ncc(-c2ccc(C#Cc3ccc(-c4cnc([C@@H]5CCCN5C(=O)[C@H](NC(=O)NC)c5ccccc5)[nH]4)cc3)cc2)[nH]1)c1ccccc1
Marked response: < 1 nM

These measurements were taken from patent US20130296311A1.
